Test system: HUVEC
Test: HUVEC tubule formation assay
Format: cell-based
Conditions: Homo sapiens, 72 h, fibrin gel, VEGF and bFGF, counted at three days, read-out: IC50, formation of new endothelial cell tubules
measure: pIC50
Schema: pIC50 number; meaning minus log10 of the concentration expressed in molar units.

Requested read-out: pIC50. Entry: `CC(C)c1nc(CN(C)C(=O)N[C@H](C(=O)N[C@@H](Cc2ccccc2)C[C@H](O)[C@H](Cc2ccccc2)NC(=O)OCc2cncs2)C(C)C)cs1`
4.80

====

System: Caco 2 cells
Assay: proliferation / combination assay in colon cancer cells
Format: cell-based
Settings: Homo sapiens; Caco 2, single agent; read-out: IC50
measure: IC50 (µM)
Answer with a number only, understood to be in µM.

If you can, please state the reported IC50 value of Cc1ccc(-c2cc(C(F)(F)F)nn2-c2ccc(S(N)(=O)=O)cc2)cc1 [Celecoxib, celecoxib] .
60

Same question, CC(=O)O[C@H]1C(=O)[C@@]2(C)[C@H]([C@H](OC(=O)c3ccccc3)[C@]3(O)C[C@H](OC(=O)[C@H](O)[C@@H](NC(=O)c4ccccc4)c4ccccc4)C(C)=C1C3(C)C)[C@]1(OC(C)=O)CO[C@@H]1C[C@@H]2O [Paclitaxel, paclitaxel] this time
0.4

Try this compound next: O=c1[nH]cc(F)c(=O)[nH]1 [Formula 5-FU, 5-fluorouracil]
28

These data points were gathered from patent US20070009593A1.
